- assayed target: NTRK1 (human)
- test method notes: radiometric filter-binding kinase assay, Kinase HotSpot
- study conditions: compound 0.5 µM; ATP 10 µM
Would you mind telling me the reported residual activity of each entry?
Give bare numbers, in %.

For the 6 molecules below, give their residual activity values.
1. Cc1cccc(-c2nc(C(C)(C)C)[nH]c2-c2ccc3c(c2)OCO3)n1
2. COc1cc2ncnc(Nc3ccc(Oc4ccccc4)cc3)c2cc1OC
3. O=C1NC(=O)c2c1c1c3ccccc3[nH]c1n1cncc21
4. CC(C)(C)c1cc(C=C(C#N)C#N)cc(Br)c1O
5. CCCCc1c(-c2ccc(OC)cc2)[nH]c2nccnc12
6. O=C1c2ccccc2-c2nc3nnnn3nc21

[96.5, 101, 89.8, 100, 109, 76.6]

For the 4 molecules below, give their residual activity values.
1. COc1ccc2c(c1)c(C1=C(c3c[nH]c4ccccc34)C(=O)NC1=O)cn2CCCN(C)C
2. CN(C)CCCn1cc(C2=C(c3c[nH]c4ccccc34)C(=O)NC2=O)c2ccccc21
3. CS(=O)(=O)CCNCc1ccc(-c2ccc3ncnc(Nc4ccc(OCc5cccc(F)c5)c(Cl)c4)c3c2)o1
4. COc1cc(Nc2c(C#N)cnc3cc(OCCCN4CCN(C)CC4)c(OC)cc23)c(Cl)cc1Cl

[83.1, 108, 99.2, 106]

Each recorded value in this set is attributed to the kinase profiling compilation of Christmann-Franck et al. (2016).
